Test system: Rattus norvegicus
Assay: Area under curve was evaluated in rat plasma when administered perorally at a dose of 10 mg/kg for 4 or 6 hours
Assay type: ADME, organism-based
Design: dose 10 mg/kg, route oral
Conditions: in vivo, po
property_label: AUC (ng·h/mL)
Answer with a number only, understood to be in ng·h/mL.

Param item = `N[C@](CC1c2ccccc2Oc2ccccc21)(C(=O)O)[C@H]1C[C@@H]1C(=O)O` ; retrieve measured AUC.
217

---

Test: Brain concentration after 2 hr at a dose of 10 mg/kg when administered perorally
Conditions: po
property_label: concentration at 2 h
Answers without a unit are incomplete; give the number and then its unit.

Param item = `N[C@](CC1c2ccccc2Oc2ccccc21)(C(=O)O)[C@H]1C[C@@H]1C(=O)O` ; retrieve measured concentration at 2 h.
3 ng/g
